Assay: Compound was evaluated for its ability to inhibit the rotamase activity of FKBP-12
Settings: read-out: Ki app
pKi: −log10 of the molar value.
measuredProperty: pKi

# compound, pKi
measured = [
    ("O=C1CC2CCCC(S(=O)(=O)c3ccccc3)(C1)C2 (centres undefined)", 4.31),
    ("O=C1CC2CCCC(Oc3cccc(O)c3)(C1)C2 (centres undefined)", 4.78),
    ("Cc1cccc(C)c1OC12CCCC(CC(=O)C1)C2 (centres undefined)", 3.34),
    ("CN(c1ccccc1)C12CCCC(CC(=O)C1)C2 (centres undefined)", 3.78),
    ("Cc1ccccc1OC12CCCC(CC(=O)C1)C2 (centres undefined)", 3.92),
]

a = COc1cccc(OC23CCCC(CC(=O)C2)C3)c1 (centres undefined)
b = O=C1CC2CCCC(Sc3ccccc3)(C1)C2 (centres undefined)
Would you kindly point out which of a and b has the smaller pKi figure? Identify your selection by its label. a
